Known AC50 of a selection of molecules
target.system: Acetylcholinesterase (Homo sapiens, UniProt P22303); further: assay procedure not described here
Sequence (P22303 whole entry): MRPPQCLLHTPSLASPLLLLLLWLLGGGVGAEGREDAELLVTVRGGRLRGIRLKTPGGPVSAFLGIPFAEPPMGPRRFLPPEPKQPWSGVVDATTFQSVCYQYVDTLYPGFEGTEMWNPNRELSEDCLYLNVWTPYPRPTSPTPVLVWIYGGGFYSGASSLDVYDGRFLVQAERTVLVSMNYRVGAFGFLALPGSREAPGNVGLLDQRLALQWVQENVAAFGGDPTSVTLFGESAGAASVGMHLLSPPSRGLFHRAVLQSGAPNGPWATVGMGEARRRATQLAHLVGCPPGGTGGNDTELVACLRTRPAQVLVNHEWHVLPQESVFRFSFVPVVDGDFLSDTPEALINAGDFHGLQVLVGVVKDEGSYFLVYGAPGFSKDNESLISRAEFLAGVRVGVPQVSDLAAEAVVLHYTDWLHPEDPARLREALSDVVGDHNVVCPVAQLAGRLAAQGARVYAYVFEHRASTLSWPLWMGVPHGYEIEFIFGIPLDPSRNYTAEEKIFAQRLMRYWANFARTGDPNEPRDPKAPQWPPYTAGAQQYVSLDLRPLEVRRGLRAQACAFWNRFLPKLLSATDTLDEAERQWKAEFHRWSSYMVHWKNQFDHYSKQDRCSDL
Type: functional

molecule	val
N=C(N)c1ccc(OCCCCCOc2ccc(C(=N)N)cc2)cc1 [PENTAMIDINE]	7.28 µM
Cc1cc(N)c2ccccc2[n+]1CCCCCCCCCC[n+]1c(C)cc(N)c2ccccc21	0.0264 µM
CC(C)(O)CNc1nc(Nc2ccnc(C(F)(F)F)c2)nc(-c2cccc(C(F)(F)F)n2)n1 [ENASIDENIB]	> 30 µM
C=CCN1CC[C@]23CCCC[C@H]2[C@H]1Cc1ccc(O)cc13 [LEVALLORPHAN]	16.7 µM
O=[N+]([O-])c1ccc(O)c2ncccc12 [NITROXOLINE]	> 10 µM

Req: Test system Acetylcholinesterase (Homo sapiens, UniProt P22303); read-out AC50; what value for CCC(=O)O[C@]1(C(=O)CCl)[C@@H](C)C[C@H]2[C@@H]3C[C@H](F)C4=CC(=O)C=C[C@]4(C)[C@@]3(F)[C@@H](O)C[C@@]21C [HALOBETASOL PROPIONATE] ?; further: assay procedure not described here
Resp: > 30 µM

Req: Record: CC(C)OC(=O)CCC/C=C\C[C@@H]1[C@@H](/C=C/C(F)(F)COc2ccccc2)[C@H](O)C[C@@H]1O [TAFLUPROST]
Resp: > 30 µM

Req: // repeat for FC(F)(F)c1ccc(CNc2ccc(Cc3c[nH]c4ncc(Cl)cc34)cn2)cn1 [PEXIDARTINIB] and report
Resp: > 30 µM

Req: Consider next the molecule CCCc1nc(C(C)(C)O)c(C(=O)O)n1Cc1ccc(-c2ccccc2-c2nnn[nH]2)cc1 [OLMESARTAN] in the same way.
Resp: > 30 µM

Req: Then this molecule: C[N+](C)(C)C[C@H](O)CC(=O)[O-] [LEVOCARNITINE]
Resp: > 30 µM

Req: Proceed to CC[C@@]1(O)C(=O)OCc2c1cc1n(c2=O)Cc2cc3c([N+](=O)[O-])cccc3nc2-1 [RUBITECAN]
Resp: 3.65 µM

Req: Cool, now Cc1ncc(COP(=O)(O)O)c(C=O)c1O [PYRIDOXAL PHOSPHATE ANHYDROUS]
Resp: > 30 µM

Req: Moving on to Cc1ccccc1N1CCN(CCc2nnc3n2CCCC3)CC1 [DAPIPRAZOLE]
Resp: > 30 µM

Req: Subsequent entry: OC[C@H]1O[C@@H](c2ccc(Cl)c(Cc3ccc(O[C@H]4CCOC4)cc3)c2)[C@H](O)[C@@H](O)[C@@H]1O [EMPAGLIFLOZIN]
Resp: > 30 µM

Req: Moving on to Cc1cc(NC(=O)C2=C(O)c3ccccc3S(=O)(=O)N2C)no1 [ISOXICAM]
Resp: > 30 µM

Req: Now the same for CC(C)(C)NC[C@H](O)COc1cccc2c1CCCC2=O [LEVOBUNOLOL]
Resp: > 30 µM

###

target.system: Muscarinic acetylcholine receptor M2 (Homo sapiens); further: assay procedure not described here
Sequence (P08172 whole entry): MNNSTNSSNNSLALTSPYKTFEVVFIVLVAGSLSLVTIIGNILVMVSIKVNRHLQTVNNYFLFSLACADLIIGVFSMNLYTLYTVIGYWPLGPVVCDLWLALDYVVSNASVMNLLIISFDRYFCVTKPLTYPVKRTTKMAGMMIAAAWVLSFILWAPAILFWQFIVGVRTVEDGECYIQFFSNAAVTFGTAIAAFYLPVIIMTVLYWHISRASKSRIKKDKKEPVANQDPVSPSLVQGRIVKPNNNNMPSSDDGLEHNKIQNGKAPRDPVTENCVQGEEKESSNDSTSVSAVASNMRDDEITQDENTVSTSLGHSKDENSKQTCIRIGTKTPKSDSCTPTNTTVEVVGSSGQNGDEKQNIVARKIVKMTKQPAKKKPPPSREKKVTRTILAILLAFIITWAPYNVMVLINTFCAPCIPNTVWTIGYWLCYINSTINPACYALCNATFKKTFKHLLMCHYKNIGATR
Format: functional, cell-based
This listing pairs compounds with measured AC50.

Consider the reported AC50 for these compounds:
compound	AC50
CCCCC(=O)O[C@]1(C(=O)CO)[C@@H](C)C[C@H]2[C@@H]3CCC4=CC(=O)C=C[C@]4(C)[C@@]3(F)[C@@H](O)C[C@@]21C [BETAMETHASONE VALERATE]	> 10 µM
CCC(COC(=O)c1cc(OC)c(OC)c(OC)c1)(c1ccccc1)N(C)C (centres undefined) [TRIMEBUTINE]	> 30 µM
O=C(O)CCNC(=O)c1ccccc1 [BETAMIPRON]	> 30 µM

Next up:
Req: Could you tell me which AC50 is on file for CN(C)CC[C@@H](c1ccc(Cl)cc1)c1ccccn1 [DEXCHLORPHENIRAMINE] ?
Resp: > 30 µM
